Examples of molecules with documented growth inhibition follow.
Test: OD615 S. cerevisiae growth inhibition, permissive medium, pilot counter-assay, permissive growth control for S. cerevisiae lifespan shortening project (AID 705)
Settings: OD615, 24 h, at 10 µM, stronger effect = higher value
Activity calls are given as the source filed them.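 Rule for the calls: active = growth inhibition above 25% in both replicates, a cutoff set 3 SD above the mean; inconclusive = above 25% in only one replicate; inactive = the rest.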

>  <MOLECULE>
COc1ccc(OC)c2[nH]c(=O)c(CCNC(=O)C(C)(C)C)cc12

>  <growth inhibition>
-5.16% (inactive)

$$$$
>  <MOLECULE>
Cc1ccc2cc(-c3noc(C4CCCCC4)n3)c(=O)[nH]c2c1

>  <growth inhibition>
-10.9% (inactive)

$$$$
>  <MOLECULE>
Cc1cc(Nc2cccc(F)c2)n2nc(C)nc2n1

>  <growth inhibition>
-13.6% (inactive)

$$$$

Task: Could you tell me which growth inhibition is on file for COC(=O)c1ccc(OCC(O)CN(CC(C)C)CC(C)C)cc1 (stereo unspecified) ?
Result: -3.55% (inactive)

Task: Could you tell me which growth inhibition is on file for CC(=O)Oc1cccc(N2C(=O)C3CC=C(Cl)CC3C2=O)c1 (stereo unspecified) ?
Result: -5.15% (inactive)
